# Tested on: Trypanosoma brucei
# Assay Method Text: Trypanosoma brucei 72 hour study
# Format: functional, organism-based
# Design: scale not given: in the data most compounds retested in dose-response had high values
# Condition Set: 30 µM; 30.03 µM
Out of some 66,000 compounds screened, about 960 (1.5%) showed an effect of 50% or more. The full list was thinned out, with strong results kept by preference.
Entries and their measured Percent Effect follow.
Outcome Measure: Percent Effect

INSERT INTO results (compound, measured_on, reading) VALUES
  ('O=C(O)C(F)(F)F.O=C(c1cnoc1)N1CCC[C@]2(C[C@@H](Oc3ccccn3)CO2)C1', 'Trypanosoma brucei', '-14.73%'),
  ('CCN1CCCn2c(nc(CNC(=O)c3cnoc3C)cc2=O)C1.O=C(O)C(F)(F)F', 'Trypanosoma brucei', '9.742%'),
  ('COc1cccc(CN2CCN(c3ccc4nncn4n3)C(C)C2)c1 (stereo unspecified)', 'Trypanosoma brucei', '97.2%'),
  ('Cc1csc2c(N3CCNC(C(=O)N4CCCC4)C3)ncnc12 (stereo unspecified)', 'Trypanosoma brucei', '24.45%'),
  ('COc1ccc(-c2cc3nn(CC(=O)NC(C)C)c(=O)n3c(C)n2)cc1', 'Trypanosoma brucei', '-13.21%'),
  ('Cc1csc2c(N3CCNC(C(=O)Nc4ccc(F)cc4)C3)ncnc12 (stereo unspecified)', 'Trypanosoma brucei', '72.13%'),
  ('CC1CN(Cc2cccc(C#N)c2)CCN1c1ccc2nncn2n1 (stereo unspecified)', 'Trypanosoma brucei', '-20.22%'),
  ('Cc1ccc(CNC2CCN(CCc3ccncc3)CC2)cc1C', 'Trypanosoma brucei', '51.93%'),
  ('COc1ccc(CNC2CCN(CCc3ccncc3)CC2)cc1O', 'Trypanosoma brucei', '21.52%'),
  ('CCc1cc(CN2C[C@H]3CC[C@@H]2CN(C2Cc4ccccc4C2)C3)on1', 'Trypanosoma brucei', '10.13%'),
  ('CC1CN(CC2CCCCC2)CCN1c1ccc2nncn2n1 (stereo unspecified)', 'Trypanosoma brucei', '-45.41%'),
  ('OC(COCc1ccco1)CN1CCC(Cn2cccn2)CC1 (stereo unspecified)', 'Trypanosoma brucei', '-22.56%'),
  ('CCN(C)c1ncnc2c1CCN(Cc1ccncc1)CC2.O=C(O)C(F)(F)F.O=C(O)C(F)(F)F.O=C(O)C(F)(F)F', 'Trypanosoma brucei', '14.6%'),
  ('CN1CCC(NCC(O)c2cccc(OCc3ccccc3)c2)CC1 (stereo unspecified)', 'Trypanosoma brucei', '101.3%'),
  ('O=C(O)C(F)(F)F.O=C(O)C(F)(F)F.O=c1ccc2c(n1Cc1ccncc1)CCN(Cc1ccoc1)CC2', 'Trypanosoma brucei', '-36.06%'),
  ('O=C(NCc1ccco1)N1CCC(n2ccc(C(F)(F)F)n2)CC1', 'Trypanosoma brucei', '-15.14%'),
  ('Cn1cccc1CN1CCC2(CC1)CN(c1ccccc1)C(=O)CO2.O=C(O)C(F)(F)F', 'Trypanosoma brucei', '-21.68%'),
  ('O=C(NCc1ccco1)[C@H]1CC[C@@H]2[C@@H](CCN2c2ncc(F)cn2)O1.O=C(O)C(F)(F)F', 'Trypanosoma brucei', '-7.643%'),
  ('O=C(O)C(F)(F)F.O=C(O)C(F)(F)F.O=C1NC2(CCN(Cc3ccc(F)cc3)CC2)CC1c1ccncc1 (stereo unspecified)', 'Trypanosoma brucei', '28.32%'),
  ('CC1CN(CC(=O)NC2CCCC2)CCN1c1ccc2nncn2n1 (stereo unspecified)', 'Trypanosoma brucei', '-13.42%'),
  ('OC(CNC1CCSCC1)c1cccc(OCc2ccccc2)c1 (stereo unspecified)', 'Trypanosoma brucei', '-20.69%');
